Assay: Components of the Cytosolic LPS Sensing Pathway: Gene Identification via Genome-wide siRNA Screen;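 further: robust z of the log signal after scaling to non-targeting control siRNA wells of the plate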
Conditions: RAW264.7 macrophages, IL-1a HTRF, actives lie on both sides, screened at 100 nM (by protocol), cells primed 5 h with Pam3CSK4 first
Out of some 53,000 sequences screened, about 3,700 (7%) were called active. Only a selection was taken, and actives are over-represented in it overall.
For each record, write down the corresponding z-score.
Could you respond with only the numeric value?

Name the recorded z-score of the sequence listed here: GGACUUCCCGAACUACAUATT against Zfp52
0.0339

Provide z-score value for the following sequence: GGCCAUGCUGAAAGUAUUUTT against Olfr561
-1.46

Note z-score for the sequence shown: CCACUGUGAGACACAUAAGTT against Muc4
-3.25

Identify z-score associated with the sequence GCUGGCUUUAAAAAUAUCUTT against Nt5dc3
0.174

Look up and report measured z-score for this entry: CGCAAGAUACCAACACUUATT against Flad1
-0.487

Identify z-score associated with the sequence CCUAGUUGAAAAUUGGGAATT against Fuca2
0.354

Please indicate z-score recorded for GGAACUUGUACAAAUAGGATT against Lpcat1
0.587

# return recorded z-score for input CCCUUACAUCCAUCAACUATT against Dcbld2
-1.04

For the sequence GGUGCUUUUUUUGGAUCAATT against Olfr507 , report z-score.
-1.05

Give z-score for the following sequence: GCCUAAGAAAUUAGUGAAUTT against Rflna
0.204

Find the measured z-score of GUCACAGUACCCAAAAUGUTT against Olfr979 and report it.
-2.42

Report z-score for GGACGAGAAUCAAGAGCAGTT against Cdkn1c
-0.0249

The reported numbers originate from PubChem BioAssay AID1508600.
